FYI, the data here is from patent US20060263802A1.

system: human monoclonal antibody CRJA; format: binding
Give measured Binding of CRJA to linear peptide (PEPSCAN-ELISA signal) for each item. Keep answers brief.
No unit in the answer, only the number.

Inquiry: Quick check: Binding of CRJA to linear peptide (PEPSCAN-ELISA signal) of ILDKLGPWSPIDIHH ?
Reply text: 56

Inquiry: Can you handle RSDEIEHLVVEELVR next?
Reply text: 93

Inquiry: Can you handle HFRPTPDACRAAYNW next?
Reply text: 93

Inquiry: Can you handle TLMEADAHYKSVRTW next?
Reply text: 111

Inquiry: Can you handle TVKTTKESLVIISPS next?
Reply text: 93

Inquiry: Can you handle LQQHMELLESSVIPL next?
Reply text: 91

Inquiry: Can you handle CGFVDERGLYKSLKG next?
Reply text: 94

Inquiry: Can you handle YKSLKGACKLKLCGV next?
Reply text: 79

Inquiry: Can you handle PGFGKAYTIFNKTLM next?
Reply text: 118

====

test system: human monoclonal antibody CR57; type: binding
Give measured Binding of CR57 to looped/cyclic peptide (PEPSCAN-ELISA signal) for each item. Keep answers brief.
No unit in the answer, only the number.

Inquiry: Quick check: Binding of CR57 to looped/cyclic peptide (PEPSCAN-ELISA signal) of DVHNQVSGVDLGLPN ?
Reply text: 120

Inquiry: Can you handle NQVSGVDLGLPNWGK next?
Reply text: 84

Inquiry: Can you handle HNQVSGVDLGLPNWG next?
Reply text: 78

Inquiry: Can you handle HLPDVHNQVSGVDLG next?
Reply text: 119

Inquiry: Can you handle FVEVHLPDVHNQVSG next?
Reply text: 150

Inquiry: Can you handle PDVHNQVSGVDLGLP next?
Reply text: 106

Inquiry: Can you handle VHLPDVHNQVSGVDL next?
Reply text: 105

Inquiry: Can you handle EDFVEVHLPDVHNQV next?
Reply text: 117

Inquiry: Can you handle DFVEVHLPDVHNQVS next?
Reply text: 113

Inquiry: Can you handle VFKDGDEAEDFVEVH next?
Reply text: 168

Inquiry: Can you handle KDGDEAEDFVEVHLP next?
Reply text: 71

Inquiry: Can you handle DPSTVFKDGDEAEDF next?
Reply text: 134

Inquiry: Can you handle AEDFVEVHLPDVHNQ next?
Reply text: 117

Inquiry: Can you handle LPDVHNQVSGVDLGL next?
Reply text: 116

Inquiry: Can you handle HPLADPSTVFKDGDE next?
Reply text: 111

Inquiry: Can you handle VHPLADPSTVFKDGD next?
Reply text: 107

Inquiry: Can you handle PLADPSTVFKDGDEA next?
Reply text: 148

Inquiry: Can you handle PSTVFKDGDEAEDFV next?
Reply text: 118

====

test system: human monoclonal antibody CRJB; type: binding
Give measured Binding of CRJB to linear peptide (PEPSCAN-ELISA signal) for each item. Keep answers brief.
No unit in the answer, only the number.

Inquiry: Quick check: Binding of CRJB to linear peptide (PEPSCAN-ELISA signal) of GKCSGVAVSSTYCST ?
Reply text: 143

Inquiry: Can you handle SSLLQQHMELLESSV next?
Reply text: 128

Inquiry: Can you handle GVAVSSTYCSTNHDY next?
Reply text: 114

Inquiry: Can you handle VDERGLYKSLKGACK next?
Reply text: 108

Inquiry: Can you handle GDPRYEESLHNPYPD next?
Reply text: 98

Inquiry: Can you handle IKMNGFTCTGVVTEA next?
Reply text: 108

Inquiry: Can you handle DFRSDEIEHLVVEEL next?
Reply text: 103

Inquiry: Can you handle TPDACRAAYNWKMAG next?
Reply text: 132

Inquiry: Can you handle NLHDFRSDEIEHLVV next?
Reply text: 113
